Target or system CDK1 (p34^cdc2, cyclin B) (Homo sapiens); recorded quantity pIC50.
Quick note: pIC50 values are minus log10 of concentrations in mol/L.

- molecule: "Cc1n[nH]c2c(Nc3ccc(O)c(C(=O)O)c3)ncnc12 [3-carboxy-4-hydroxyanilino / methyl]"
  pIC50: 4.47
- molecule: "CCc1n[nH]c2c(Nc3ccc(O)c(C(=O)O)c3)ncnc12 [3-carboxy-4-hydroxyanilino / ethyl]"
  pIC50: 4.62
- molecule: "Cc1n[nH]c2c(NC3CCCCC3)ncnc12"
  pIC50: 4.47

Input line: Given the molecule CC(C)c1n[nH]c2c(NC3CCC(N)CC3)ncnc12 (centres unmarked) , what is its reported pIC50?
Output line: 4.10

Input line: Further, for `Cc1n[nH]c2c(Nc3ccc(Br)cc3)ncnc12` ?
Output line: 4.80

Input line: Now this one: CC(C)c1n[nH]c2c(Nc3ccc(O)c(C(=O)O)c3)ncnc12 [3-carboxy-4-hydroxyanilino / isopropyl]
Output line: 5.51

Input line: Now the molecule `CCc1n[nH]c2c(NCc3ccc(Cl)cc3)ncnc12`
Output line: 4.59

Input line: `CC(C)c1n[nH]c2c(NCc3ccc(Cl)cc3)ncnc12` ?
Output line: 5.74
